system: murine skin; assay: Porphyrin formation (skin fluorescence) after topical application onto murine skin; type: in vivo, Female Balb/c athymic nude mice; conditions: topical cream on nude mouse skin; 1% (w/w), except compounds 16, 29, 30, 31 at 3% and 17-19 at 10%
Endpoint: skin fluorescence level after topical application

Compound	Result
Cl.NCC(=O)CCC(=O)OCc1ccc(C(F)(F)F)cc1 [Compound 9]	high fluorescence levels
CC(C)CCCOC(=O)CCC(=O)CN.Cl [Compound 8]	high fluorescence levels
Cl.NCC(=O)CCC(=O)OCc1ccc(Cl)cc1 [Compound 19]	high fluorescence levels

====

tested on: WiDr cells; assay: Measurement of porphyrin formation in cell culture in vitro; format: cell-based; details: 4 h incubation, fold versus ALA
Endpoint: potency in inducing cellular porphyrin formation relative to ALA

Observe how each entry below is paired with its result.
Compound	Result
CC(C)CCCOC(=O)CCC(=O)CN.Cl	approximately 100 times
CCCCCCOC(=O)CCC(=O)CN.Cl [Compound 6, hexyl 5-aminolevulinate-HCl, reference compound]	approximately 100 times
CC(C)(C)c1ccc(COC(=O)CCC(=O)CN)cc1.Cl	approximately 200 times
Cl.NCC(=O)CCC(=O)OCc1ccc(C(F)(F)F)cc1	approximately 200 times
Cc1ccc(COC(=O)CCC(=O)CN)cc1.Cl	approximately 200 times

Dear colleague, could you send me potency in inducing cellular porphyrin formation relative to ALA for each of the items below? Thanks.
1. CC(C)c1ccc(COC(=O)CCC(=O)CN)cc1.Cl
2. Cl.NCC(=O)CCC(=O)OCc1ccc([N+](=O)[O-])cc1

1. approximately 200 times
2. approximately 200 times

Reference for the values: patent US7563819B1
